- assayed-target: HCV NS5B RdRp genotype 1b (Hepatitis C virus genotype 1b, UniProt Q9WMX2)
- Construct: The protein was expressed with an 18 amino acid C-terminal truncation to enhance the solubility
- Sequence (Q9WMX2 2420-2992): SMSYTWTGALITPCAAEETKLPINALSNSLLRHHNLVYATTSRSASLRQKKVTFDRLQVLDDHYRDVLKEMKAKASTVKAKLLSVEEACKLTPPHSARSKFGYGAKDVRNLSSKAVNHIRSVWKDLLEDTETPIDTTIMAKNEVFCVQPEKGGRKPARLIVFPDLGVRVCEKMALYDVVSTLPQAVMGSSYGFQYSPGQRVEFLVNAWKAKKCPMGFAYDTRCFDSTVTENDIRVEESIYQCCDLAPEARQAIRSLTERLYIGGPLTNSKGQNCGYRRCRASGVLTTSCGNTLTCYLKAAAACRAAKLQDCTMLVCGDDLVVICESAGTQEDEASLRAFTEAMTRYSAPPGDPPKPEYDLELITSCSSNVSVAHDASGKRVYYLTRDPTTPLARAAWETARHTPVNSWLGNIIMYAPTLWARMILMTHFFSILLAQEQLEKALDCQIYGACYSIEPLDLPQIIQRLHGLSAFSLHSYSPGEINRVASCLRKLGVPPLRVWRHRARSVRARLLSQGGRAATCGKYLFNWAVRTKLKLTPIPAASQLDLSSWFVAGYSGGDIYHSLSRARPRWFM
- assay-name: HCV NS5B RdRp enzyme assay
- run-conditions: IC50, HCV RdRp genotype 1b enzyme, C-terminal 18 aa truncated; average of single point IC50 values
pIC50: −log10 of the molar value.
# binarize pIC50: threshold 7 inclusive, high side rule met, low side rule not met

// query Item CC(NC(=O)c1ccc(-c2ccc(F)c(Cl)c2)c(COc2ccc(-c3nc4cc(-c5nnn[nH]5)ccc4n3C3CCCCC3)cc2)c1)C(=O)O (stereo not drawn) with pIC50 of 7 or above?
// result rule not met

----------
Recorded IC50 by entry
- assayed-target: HCV NS5B RdRp genotype 1b (Hepatitis C virus genotype 1b, UniProt Q9WMX2)
- Construct: The protein was expressed with an 18 amino acid C-terminal truncation to enhance the solubility
- assay-name: HCV NS5B RdRp enzyme assay
- run-conditions: IC50, HCV RdRp genotype 1b enzyme, C-terminal 18 aa truncated; average of single point IC50 values
Give the quantity in nM, number only.

Examples from the recorded data:
compound | IC50 [nM]
CNC(=O)c1ccc(-c2ccc(Cl)cc2)c(COc2ccc(-c3nc4cc(-c5nnn[nH]5)ccc4n3C3CCCCC3)cc2)c1 [Example 106] | 660
O=Cc1ccc(-c2ccc(C(=O)O)cc2COc2ccc(-c3nc4cc(-c5nnn[nH]5)ccc4n3C3CCCCC3)cc2)cc1 [Example 37] | 70
O=C(O)CNC(=O)c1ccc(-c2cccc(O)c2)c(COc2ccc(-c3nc4cc(-c5nnn[nH]5)ccc4n3C3CCCCC3)cc2)c1 [Example 74] | 150
CNC(=O)c1ccc(-c2ccc(F)c(Cl)c2)c(COc2ccc(-c3nc4cc(-c5nnn[nH]5)ccc4n3C3CCCCC3)cc2)c1 [Example 79] | 550
O=C(O)c1ccc(-c2cc(Cl)cc(Cl)c2)c(COc2ccc(-c3nc4cc(-c5nnn[nH]5)ccc4n3C3CCCCC3)cc2)c1 [Example 27] | 1010

Here's the next entry for you.
For the compound CNC(=O)c1ccc(-c2ccc(OC)c(OC)c2)c(COc2ccc(-c3nc4cc(-c5nnn[nH]5)ccc4n3C3CCCCC3)cc2)c1 [Example 91] , the measured IC50 on HCV NS5B RdRp genotype 1b (Hepatitis C virus genotype 1b, UniProt Q9WMX2) was 260

----------
Reported pIC50 by item:
- assayed-target: HCV NS5B RdRp genotype 1b (Hepatitis C virus genotype 1b, UniProt Q9WMX2)
- Construct: The protein was expressed with an 18 amino acid C-terminal truncation to enhance the solubility
- assay-name: HCV NS5B RdRp enzyme assay
- run-conditions: IC50, HCV RdRp genotype 1b enzyme, C-terminal 18 aa truncated; average of single point IC50 values
By convention, pIC50 is the negative base-10 log of a molar concentration.

Please review the following examples before continuing.
compound | pIC50
O=C(O)c1ccc(-c2cccc3ccccc23)c(COc2ccc(-c3nc4cc(-c5nnn[nH]5)ccc4n3C3CCCCC3)cc2)c1 | 6.21
O=C(O)c1ccc(-c2ccc(O)cc2)c(COc2ccc(-c3nc4cc(-c5nnn[nH]5)ccc4n3C3CCCCC3)cc2)c1 | 7.22
O=C(c1ccc(-c2ccc(F)c(Cl)c2)c(COc2ccc(-c3nc4cc(-c5nnn[nH]5)ccc4n3C3CCCCC3)cc2)c1)N1CCOCC1 | 5.85
O=C(c1ccc(-c2cccc(O)c2)c(COc2ccc(-c3nc4cc(-c5nnn[nH]5)ccc4n3C3CCCCC3)cc2)c1)N1CCCC1 | 5.85
CC(C)(C)OC(=O)C(Cc1ccc(O)cc1)NC(=O)c1ccc(-c2ccc(F)c(Cl)c2)c(COc2ccc(-c3nc4cc(-c5nnn[nH]5)ccc4n3C3CCCCC3)cc2)c1 (stereo not drawn) | 6.25

pIC50 for COc1ccc(-c2ccc(C(=O)NCCCO)cc2COc2ccc(-c3nc4cc(-c5nnn[nH]5)ccc4n3C3CCCCC3)cc2)cc1OC is 6.20

----------
# pIC50 listing for each entry below
- assayed-target: HCV NS5B RdRp genotype 1b (Hepatitis C virus genotype 1b, UniProt Q9WMX2)
- Construct: The protein was expressed with an 18 amino acid C-terminal truncation to enhance the solubility
- assay-name: HCV NS5B RdRp enzyme assay
- run-conditions: IC50, HCV RdRp genotype 1b enzyme, C-terminal 18 aa truncated; average of single point IC50 values
Please treat pIC50 as minus the base-10 logarithm of the molar concentration.

Guide cases for pIC50, answers given:
compound | pIC50
O=C(O)c1ccc(-c2ccc(Cl)cc2)c(COc2ccc(-c3nc4cc(-c5nnn[nH]5)ccc4n3C3CCCCC3)cc2)c1 [Example 23] | 7.70
O=C(O)c1ccc(-c2ccsc2)c(COc2ccc(-c3nc4cc(-c5nnn[nH]5)ccc4n3C3CCCCC3)cc2)c1 [Example 115] | 7.40
COc1ccc(-c2ccc(C(=O)NCC(=O)OC(C)(C)C)cc2COc2ccc(-c3nc4cc(-c5nnn[nH]5)ccc4n3C3CCCCC3)cc2)cc1OC [Example 96] | 5.80
CNC(=O)c1ccc(-c2ccc(Cl)cc2)c(COc2ccc(-c3nc4cc(-c5nnn[nH]5)ccc4n3C3CCCCC3)cc2)c1 [Example 50] | 6.64
CC(C)(C)OC(=O)C(Cc1ccc(OC(C)(C)C)cc1)NC(=O)c1cccc(COc2ccc(-c3nc4cc(-c5nnn[nH]5)ccc4n3C3CCCCC3)cc2)c1 (stereo not drawn) [Example 51] | 6.03

--- query ---
The measured pIC50 associated with O=C(c1ccc(-c2ccc(F)c(Cl)c2)c(COc2ccc(-c3nc4cc(-c5nnn[nH]5)ccc4n3C3CCCCC3)cc2)c1)N1CCCC1 [Example 77] reads 5.92

----------
- assayed-target: HCV NS5B RdRp genotype 1b (Hepatitis C virus genotype 1b)
- Construct: The protein was expressed with an 18 amino acid C-terminal truncation to enhance the solubility
- assay-name: HCV NS5B RdRp enzyme assay
- run-conditions: IC50, HCV RdRp genotype 1b enzyme, C-terminal 18 aa truncated; average of single point IC50 values
property-label: IC50 (nM)
Number in nM, nothing else.

Here are 3 compounds together with their reported answers.
compound | unit-info | readout-number
O=C(O)c1ccc(-c2ccc([N+](=O)[O-])cc2)c(COc2ccc(-c3nc4cc(-c5nnn[nH]5)ccc4n3C3CCCCC3)cc2)c1 [Example 41] | nM | 50
O=C(NC(Cc1ccc(O)cc1)C(=O)O)c1ccc(-c2ccc(F)c(Cl)c2)c(COc2ccc(-c3nc4cc(-c5nnn[nH]5)ccc4n3C3CCCCC3)cc2)c1 (stereo not drawn) [Example 57] | nM | 180
N#Cc1ccc(-c2ccc(C(=O)N3CCC(O)CC3)cc2COc2ccc(-c3nc4cc(-c5nnn[nH]5)ccc4n3C3CCCCC3)cc2)cc1 [Example 149] | nM | 220

Kindly note the recorded IC50 for COc1ccc(-c2ccc(C(=O)N(CCO)CCO)cc2COc2ccc(-c3nc4cc(-c5nnn[nH]5)ccc4n3C3CCCCC3)cc2)cc1OC [Example 93] , which is 690

get_value(item= O=C(c1ccc(-c2ccsc2)c(COc2ccc(-c3nc4cc(-c5nnn[nH]5)ccc4n3C3CCCCC3)cc2)c1)N(CCO)CCO [Example 138] , readout=IC50) returns 3000

For c1ccc(C(Oc2ccc(-c3nc4cc(-c5nnn[nH]5)ccc4n3C3CCCCC3)cc2)c2ccccc2)cc1 [Example 1] the compound record lists IC50 as 630

----------
- assayed-target: HCV NS5B RdRp genotype 1b (Hepatitis C virus genotype 1b)
- Construct: The protein was expressed with an 18 amino acid C-terminal truncation to enhance the solubility
- assay-name: HCV NS5B RdRp enzyme assay
- run-conditions: IC50, HCV RdRp genotype 1b enzyme, C-terminal 18 aa truncated; average of single point IC50 values
Response field label takes TRUE when IC50 is strictly below 500 nM and FALSE in all other cases.

Example cases with answers are listed next.
compound | group-label
CC(=O)Nc1cccc(-c2ccc(C(=O)O)cc2COc2ccc(-c3nc4cc(-c5nnn[nH]5)ccc4n3C3CCCCC3)cc2)c1 | TRUE
O=Cc1ccccc1-c1ccc(C(=O)O)cc1COc1ccc(-c2nc3cc(-c4nnn[nH]4)ccc3n2C2CCCCC2)cc1 | FALSE
O=C(O)CC(=O)NS(=O)(=O)c1ccc2c(c1)nc(-c1ccc(OCc3ccccc3)cc1)n2C1CCCCC1 | FALSE
CC(NC(=O)c1ccc(-c2cccc(O)c2)c(COc2ccc(-c3nc4cc(-c5nnn[nH]5)ccc4n3C3CCCCC3)cc2)c1)C(=O)O (stereo not drawn) | TRUE
O=C(O)CNC(=O)c1ccc(-c2ccc(F)c(Cl)c2)c(COc2ccc(-c3nc4cc(-c5nnn[nH]5)ccc4n3C3CCCCC3)cc2)c1 | TRUE

// query Strictly below 500 nM: is that where IC50 of NC(=O)CCNC(=O)c1ccc(-c2ccc3[nH]cc(C(=O)C(F)(F)F)c3c2)c(COc2ccc(-c3nc4cc(-c5nnn[nH]5)ccc4n3C3CCCCC3)cc2)c1 sits?
// result TRUE

// query Is the reported IC50 for CN(C)C(=O)c1ccc(-c2ccc3[nH]cc(C(=O)C(F)(F)F)c3c2)c(COc2ccc(-c3nc4cc(-c5nnn[nH]5)ccc4n3C3CCCCC3)cc2)c1 strictly below 500 nM?
// result TRUE

// query Please let me know if O=C(O)c1ccc(-c2cncnc2)c(COc2ccc(-c3nc4cc(-c5nnn[nH]5)ccc4n3C3CCCCC3)cc2)c1 shows IC50 below 500 nM.
// result FALSE

// query Strictly below 500 nM: is that where IC50 of CSc1ccc(-c2ccc(C(=O)O)cc2COc2ccc(-c3nc4cc(-c5nnn[nH]5)ccc4n3C3CCCCC3)cc2)cc1 sits?
// result TRUE

The origin of these recorded values is patent US6803374B2.
